Experiment: Cytotoxicity against human WI38 cells after 72 hrs by MTT assay
Format: cell-based
Details: WI-38, 72 h
// classify: if (IC50 < 5 µM) yes else no

Study these solved cases before continuing.
CCN(CC)CCn1cnnc1-c1cc(Oc2ccc(NC(=O)Nc3ccc(Cl)cc3Cl)cc2F)ccn1 : yes
CCN(CC)CCn1cnnc1-c1cc(Oc2ccc(NC(=O)Nc3ccc(Cl)c(C(F)(F)F)c3)cc2F)ccn1 : no
Cn1ncnc1-c1cc(Oc2ccc(NC(=O)Nc3cccc(C(F)(F)F)c3)cc2F)ccn1 : no

Prompt: Please determine if CCN(CC)CCn1cnnc1-c1cc(Oc2ccc(NC(=O)Nc3cccc(C(F)(F)F)c3)cc2F)ccn1 is below 5 µM in terms of IC50.
Completion: no

Prompt: Follow-up item: CN(C)CCCn1cnnc1-c1cc(Oc2ccc(NC(=O)Nc3ccc(F)c(Cl)c3)cc2F)ccn1
Completion: no

Prompt: Follow-up item: CN(C)CCCn1cnnc1-c1cc(Oc2ccc(NC(=O)Nc3ccc(F)c(F)c3)cc2F)ccn1
Completion: no

###

Target: Vascular endothelial growth factor receptor 2 (Homo sapiens) (UniProt P35968);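 note: kinase activity read out by mobility shift assay after 1 h of incubation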
Sequence (P35968 whole entry): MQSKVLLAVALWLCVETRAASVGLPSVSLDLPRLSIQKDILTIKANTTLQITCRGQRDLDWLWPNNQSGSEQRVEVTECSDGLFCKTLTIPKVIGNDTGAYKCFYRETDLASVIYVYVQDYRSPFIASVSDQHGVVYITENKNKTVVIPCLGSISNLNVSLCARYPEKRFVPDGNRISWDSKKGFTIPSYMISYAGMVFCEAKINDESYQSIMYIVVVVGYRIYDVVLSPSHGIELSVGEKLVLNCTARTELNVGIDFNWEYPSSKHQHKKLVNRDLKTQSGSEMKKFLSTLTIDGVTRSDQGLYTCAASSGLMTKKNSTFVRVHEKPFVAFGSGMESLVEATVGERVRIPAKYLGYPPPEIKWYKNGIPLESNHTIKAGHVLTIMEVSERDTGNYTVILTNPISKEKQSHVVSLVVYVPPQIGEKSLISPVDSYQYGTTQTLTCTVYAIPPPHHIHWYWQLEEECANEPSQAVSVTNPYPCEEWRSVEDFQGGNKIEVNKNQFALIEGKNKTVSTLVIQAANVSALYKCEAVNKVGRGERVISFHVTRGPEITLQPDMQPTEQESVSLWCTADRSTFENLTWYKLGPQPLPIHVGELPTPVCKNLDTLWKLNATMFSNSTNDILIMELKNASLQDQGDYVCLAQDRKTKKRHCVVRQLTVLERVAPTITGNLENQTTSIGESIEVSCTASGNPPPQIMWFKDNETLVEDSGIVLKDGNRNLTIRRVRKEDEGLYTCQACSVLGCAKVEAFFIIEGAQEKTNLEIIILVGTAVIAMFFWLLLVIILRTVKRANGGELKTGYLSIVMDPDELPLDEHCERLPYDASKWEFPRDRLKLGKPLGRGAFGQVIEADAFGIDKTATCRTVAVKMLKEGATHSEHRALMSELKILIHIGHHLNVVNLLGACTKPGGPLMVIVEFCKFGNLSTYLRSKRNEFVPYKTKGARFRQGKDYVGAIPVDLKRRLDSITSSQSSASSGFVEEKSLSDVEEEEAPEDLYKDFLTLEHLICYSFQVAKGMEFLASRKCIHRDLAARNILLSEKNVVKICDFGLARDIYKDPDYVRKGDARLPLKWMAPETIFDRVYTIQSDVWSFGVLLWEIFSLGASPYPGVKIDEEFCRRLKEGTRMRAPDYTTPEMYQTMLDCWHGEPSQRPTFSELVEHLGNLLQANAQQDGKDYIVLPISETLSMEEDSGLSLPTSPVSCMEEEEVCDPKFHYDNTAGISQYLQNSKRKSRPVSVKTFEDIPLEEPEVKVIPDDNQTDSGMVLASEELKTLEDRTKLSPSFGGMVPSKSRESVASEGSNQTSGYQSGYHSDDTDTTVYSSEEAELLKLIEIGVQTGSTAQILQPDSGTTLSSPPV
Details: at 10 µM
Description: Inhibition of VGFR2 (unknown origin) at 10 uM after 1 hr by mobility shift assay
# label = Y if inhibition >= 10% else N

Study these solved cases before continuing.
CN(C)CCn1cnnc1-c1cc(Oc2ccc(NC(=O)Nc3cccc(C(F)(F)F)c3)cc2F)ccn1 : N
CN(C)CCCn1cnnc1-c1cc(Oc2ccc(NC(=O)Nc3ccc(Cl)cc3Cl)cc2F)ccn1 : Y
CN(C)CCCn1cnnc1-c1cc(Oc2ccc(NC(=O)Nc3ccc(F)c(F)c3)cc2F)ccn1 : Y
O=C(Nc1ccc(Oc2ccnc(-c3nncn3CCCN3CCOCC3)c2)c(F)c1)Nc1ccc(Cl)c(C(F)(F)F)c1 : N
CN(C)CCn1cnnc1-c1cc(Oc2ccc(NC(=O)Nc3ccc(F)c(Cl)c3)cc2F)ccn1 : Y

Prompt: Test whether the molecule CN(C)CCCn1cnnc1-c1cc(Oc2ccc(NC(=O)Nc3ccc(Cl)c(C(F)(F)F)c3)cc2F)ccn1 records inhibition of 10% or higher.
Completion: Y

Prompt: Follow-up item: CN(C)CCCn1cnnc1-c1cc(Oc2ccc(NC(=O)Nc3ccccc3C(F)(F)F)cc2F)ccn1
Completion: N

Prompt: Follow-up item: CN(C)CCn1cnnc1-c1cc(Oc2ccc(NC(=O)Nc3ccc(Cl)c(C(F)(F)F)c3)cc2F)ccn1
Completion: N

Prompt: Follow-up item: CCN(CC)CCn1cnnc1-c1cc(Oc2ccc(NC(=O)Nc3ccc(F)c(F)c3)cc2F)ccn1
Completion: N

Prompt: Follow-up item: CN(C)CCn1cnnc1-c1cc(Oc2ccc(NC(=O)Nc3ccccc3C(F)(F)F)cc2F)ccn1
Completion: N

Prompt: Follow-up item: CN(C)CCn1cnnc1-c1cc(Oc2ccc(NC(=O)Nc3ccc(Cl)cc3Cl)cc2F)ccn1
Completion: N

Prompt: Follow-up item: CCN(CC)CCn1cnnc1-c1cc(Oc2ccc(NC(=O)Nc3cccc(C(F)(F)F)c3)cc2F)ccn1
Completion: Y

Prompt: Follow-up item: CN(C)CCCn1cnnc1-c1cc(Oc2ccc(NC(=O)Nc3ccc(F)c(Cl)c3)cc2F)ccn1
Completion: Y

Prompt: Follow-up item: CN(C)CCCn1cnnc1-c1cc(Oc2ccc(NC(=O)Nc3cccc(C(F)(F)F)c3)cc2F)ccn1
Completion: Y

Prompt: Follow-up item: CCN(CC)CCn1cnnc1-c1cc(Oc2ccc(NC(=O)Nc3ccc(F)c(Cl)c3)cc2F)ccn1
Completion: N
